# targetOrTestSystem: Mu-type opioid receptor (Homo sapiens)
# assayRemarks: Displacement of [3H]naloxone from mu opioid receptor expressed in CHO cell membrane at 10 uM
# Assay type: cell membranes
Assign TRUE whenever inhibition does not fall below 60%; assign FALSE whenever it does.

The examples below pair each entry with its known result.
> print(dat)
                                   compound  categorylabel
1  COC1=CC[C@]23CCN(C)[C@@]24C[C@H](O[C@@]14O)c1ccc(OC)c(O)c13 [PROSTEPHABYSSINE]           TRUE
2  COC1=C(OC)[C@]23CCc4ccc(OC)c(O)c4[C@]2(CCN3C)CC1=O [AKNADININE]           TRUE
3  COc1ccc2c(c1O)[C@@]13CCN(C)[C@@]14C[C@@H]2O[C@]4(OC)[C@@H](O)[C@@H](OC(=O)/C=C/c1ccccc1)C3          FALSE
4  COC1=C2[C@@H]3Cc4ccc(OC)c(O)c4[C@]2(CCN3)C[C@H](O)[C@@H]1O [SINOCOCULINE]          FALSE
5  COc1ccc2c(c1O)[C@@]13CCN(C)[C@@]14C[C@@H]2O[C@]4(O)[C@@H](OC)[C@@H](O)C3 [LONGANINE]           TRUE

query: Check the entry "COc1ccc(/C=C/C(=O)O[C@H]2C[C@]34CCN(C)[C@@]35C[C@H](O[C@]5(OC)[C@H]2OC)c2ccc(OC)c(O)c24)cc1O" : does inhibition equal or exceed 60%?
result: FALSE

* * *

# targetOrTestSystem: Delta-type opioid receptor (Homo sapiens, UniProt P41143)
# Sequence (P41143 whole entry): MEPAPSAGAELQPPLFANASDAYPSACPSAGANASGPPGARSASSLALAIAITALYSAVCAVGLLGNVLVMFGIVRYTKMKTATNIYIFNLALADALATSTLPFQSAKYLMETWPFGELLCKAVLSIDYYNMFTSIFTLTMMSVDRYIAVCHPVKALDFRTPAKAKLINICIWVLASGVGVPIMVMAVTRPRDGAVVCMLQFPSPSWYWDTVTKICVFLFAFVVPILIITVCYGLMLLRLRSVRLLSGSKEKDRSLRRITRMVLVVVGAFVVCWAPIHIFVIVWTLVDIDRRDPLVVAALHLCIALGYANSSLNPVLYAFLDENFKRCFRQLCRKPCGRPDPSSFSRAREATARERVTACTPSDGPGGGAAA
# assayRemarks: Displacement of [3H]deltorphin-2 from human delta opioid receptor expressed in HEK293 cell membrane
observedProperty: IC50 (µM)
Field: numeric (µM). Do not append units.

Some entries whose results are on file:
> print(dat)
                             smilesnotation                        targetortestsystem  observedproperty  resultunit  endpointvalue
1  COC1=C2[C@@H]3Cc4ccc(OC)c(O)c4[C@]2(CCN3)C[C@H](O)[C@@H]1O  Delta-type opioid receptor (Homo sapiens, UniProt P41143)              IC50          µM             37
2  COC1=CC[C@]23CCN(C)[C@@]24C[C@H](O[C@@]14O)c1ccc(OC)c(O)c13  Delta-type opioid receptor (Homo sapiens, UniProt P41143)              IC50          µM            5.5
3  COc1ccc2c(c1O)[C@@]13CC(=O)N(C)[C@@]14C[C@@H]2O[C@]4(OC)[C@@H](OC)[C@@H](OC(=O)/C=C/c1ccccc1)C3  Delta-type opioid receptor (Homo sapiens, UniProt P41143)              IC50          µM            5.1

query: I have this compound here, "COC1=C(OC)[C@]23CCc4ccc(OC)c(O)c4[C@@]2(CC1=O)CC(=O)N3C" , and I need its recorded IC50.
result: 17

* * *

# targetOrTestSystem: Delta-type opioid receptor (Homo sapiens)
# assayRemarks: Displacement of [3H]deltorphin-2 from human delta opioid receptor expressed in HEK293 cell membrane
Assign labels as follows, please: true (1) for IC50 below 2000 nM; false (0) for IC50 equal to or exceeding 2000 nM.

query: Take the molecule "COc1ccc2c(c1O)[C@@]13CCN(C)[C@@]14C[C@@H]2O[C@]4(OC)[C@@H](O)[C@@H](OC(=O)/C=C/c1ccccc1)C3" and say whether its IC50 is less than 2000 nM.
result: false (0)

query: Take the molecule "COc1ccc2c(c1O)[C@@]13CCN(C)[C@@]14C[C@@H]2O[C@]4(O)[C@@H](OC)[C@@H](O)C3" and say whether its IC50 is less than 2000 nM.
result: true (1)

query: Take the molecule "COC1=C(OC)[C@]23CCc4ccc(OC)c(O)c4[C@]2(CCN3C)CC1=O" and say whether its IC50 is less than 2000 nM.
result: false (0)

query: Take the molecule "COc1ccc(/C=C/C(=O)O[C@H]2C[C@]34CCN(C)[C@@]35C[C@H](O[C@]5(OC)[C@H]2OC)c2ccc(OC)c(O)c24)cc1O" and say whether its IC50 is less than 2000 nM.
result: false (0)

query: Take the molecule "COc1ccc2c(c1O)[C@@]13CCN(C)[C@@]14C[C@@H]2O[C@]4(OC)[C@@H](OC)[C@@H](O)C3" and say whether its IC50 is less than 2000 nM.
result: false (0)

* * *

Each entry below lists one item and its recorded inhibition value.
# targetOrTestSystem: UniProt P35372
# Sequence (P35372 whole entry): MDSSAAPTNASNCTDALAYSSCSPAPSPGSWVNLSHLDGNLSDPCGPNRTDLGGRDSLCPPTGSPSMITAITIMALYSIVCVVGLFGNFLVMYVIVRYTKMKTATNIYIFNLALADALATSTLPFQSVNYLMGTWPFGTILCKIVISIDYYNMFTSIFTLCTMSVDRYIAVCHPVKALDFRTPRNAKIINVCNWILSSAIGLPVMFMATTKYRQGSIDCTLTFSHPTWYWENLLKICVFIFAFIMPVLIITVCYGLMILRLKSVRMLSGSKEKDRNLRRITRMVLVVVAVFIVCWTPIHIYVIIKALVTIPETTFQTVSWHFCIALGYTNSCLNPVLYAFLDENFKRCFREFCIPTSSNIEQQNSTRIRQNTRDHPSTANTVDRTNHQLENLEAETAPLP
# assayRemarks: Displacement of [3H]naloxone from mu opioid receptor expressed in CHO cell membrane at 10 uM
# Type: cell membranes
Field: numeric (%). Do not append units.

Some entries whose results are on file:
> print(dat)
                             smilesnotation  resultunit  endpointvalue
1  COc1ccc2c(c1O)[C@@]13CCN(C)[C@@]14C[C@@H]2O[C@]4(OC)[C@@H](OC)[C@@H](O)C3           %             68
2  COc1ccc2c(c1O)[C@@]13CC(=O)N(C)[C@@]14C[C@@H]2O[C@]4(OC)[C@@H](OC)[C@@H](OC(=O)/C=C/c1ccccc1)C3           %             74

Continue with the next molecule.
query: I have this molecule here, "COC1=C(OC)[C@]23CCc4ccc(OC)c(O)c4[C@@]2(CC1=O)CC(=O)N3C" , and I need its recorded inhibition.
result: 49
